Exercise: for every item that follows, state its recorded pIC50.
Target: HIV integrase (Human immunodeficiency virus type 1 group M subtype B, UniProt P12497, F1332H)
Construct: HIV integrase full length gene; made in house; host or cells: Escherichia coli BL21(DE3)
Assay: Determination of enzyme (HIV integrase) inhibitory activity (strand transfer, microtiter plate, absorbance at 450 nm)
Format: biochemical, HIV (Human Immunodeficiency Virus (type 1))
Conditions: recombinant HIV integrase (F185H) expressed in E. coli; donor DNA on streptavidin plate, digoxigenin target DNA; 37° C.
Answers are plain numbers, as −log10 of the molar value.

Please state, for each entry, its recorded pIC50.
1. O=C(O)c1cn(CCO)c2ccc(Cc3cccc(Br)c3)cc2c1=O [Example 1-96]
2. O=C(O)c1cn(CCO)c2cc(N3CCCC3)c(Cc3cccc(Cl)c3F)cc2c1=O [Example 3-66]
3. O=C(O)c1cn(CCCCc2ccccc2)c2ccc(Cc3cccc(Cl)c3Cl)cc2c1=O [Example 1-19]
4. O=C(O)c1cn(CCO)c2ccc(Cc3ccc(F)cc3Cl)cc2c1=O [Example 1-51]
5. CCCn1cc(C(=O)O)c(=O)c2cc(Cc3cccc(Cl)c3Cl)ccc21 [Example 1-38]
6. O=C(O)c1cn(CCO)c2cc(O)c(Cc3cccc(Cl)c3Cl)cc2c1=O [Example 3-6]
7. CC(C)(C)NS(=O)(=O)Cn1cc(C(=O)O)c(=O)c2cc(Cc3cccc(Cl)c3Cl)ccc21 [Example 1-70]
8. O=C(O)c1cn(CC2CCCC2)c2ccc(Cc3cccc(Cl)c3Cl)cc2c1=O [Example 1-40]

Result:
1: 6.64; 2: 7.32; 3: 7.09; 4: 6.74; 5: 6.77; 6: 7.96; 7: 7.09; 8: 6.96

Where do these numbers come from? They come from patent US8232401B2.
